- method_notes: FRG1 promoter luciferase signal modulators, primary screen, FRG1 inhibition for FSHD, cell-based, C2C12 myotubes, firefly/Renilla luciferase, luminescence (AID 1084)
- settings: higher = more signal, called active from +8 up or from −8 down
Exercise: state measured z-score for each of the compounds provided.
Give the value as a plain number.

Q: Identify z-score associated with the compound CN1C(=O)C2C=CC(C(O)C3=C[C@H]4C[C@@H](C3)C4(C)C)N(Nc3ccccc3)C2C1=O (stereo partly drawn)
A: 0.175

Q: Identify z-score associated with the compound O=C1O[C@H](c2ccccc2)[C@H](c2ccccc2)N2[C@H]1[C@@H](C(=O)N1CCN(c3ncccn3)CC1)[C@]1(C(=O)Nc3ccc(C#CC4=CCCCC4)cc31)[C@H]2c1ccc(O)cc1
A: -0.63

Q: Identify z-score associated with the compound O=C1C[C@]2(c3ccc([N+](=O)[O-])cc3)C(=O)N(CCN3CCOCC3)c3cc(CO)ccc3[C@H]2N1C1CCCCC1
A: -1.88

* * *

- method_notes: S. cerevisiae growth modulation with rapamycin, primary screen, strain BY4716, OD600, 96 h (AID 1091); note: test concentration not given here
- settings: higher = more signal, called active from +8 up or from −8 down
Exercise: state measured z-score for each of the compounds provided.
Give the value as a plain number.

Q: Identify z-score associated with the compound COc1ccc(COC2OC[C@]3(C)[C@H]4C5=C(CN3C(=O)OC(C)(C)C)[C@H](C)C(CO)C(CO)C5CC[C@@H]24)cc1 (stereo partly drawn)
A: 0.502

Q: Identify z-score associated with the compound CN1C(=O)C2C=CC(C(O)c3cccs3)N(Nc3ccccc3)C2C1=O (stereo not drawn)
A: 0.662

Q: Identify z-score associated with the compound O=C(NCC(F)(F)F)[C@@H]1c2ccccc2C(=O)N(C2CCCCC2)[C@H]1c1ccc(CO)cc1
A: 0.963

* * *

- method_notes: PSAC antagonists in infected red cells, primary screen, cell-based, P. falciparum Indochina, OD700, 2 h (AID 1155);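 note: lysis reports solute entry through the parasite surface anion channel PSAC; channel blockers reduce lysis of infected cells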
- settings: P. falciparum Indochina infected erythrocytes, osmotic lysis OD700; higher = more signal, called active from +8 up or from −8 down
Exercise: state measured z-score for each of the molecules provided.
Give the value as a plain number.

Q: Identify z-score associated with the molecule CS(=O)(=O)CCOC(=O)C1=CC(CCCO)=CC(c2ccc(CN3CCCC3)cc2)N(Cc2cc3c(cc2Br)OCO3)C=C1C(=O)OCCS(C)(=O)=O (configuration not stated)
A: -0.211

Q: Identify z-score associated with the molecule O=C1O[C@H](c2ccccc2)[C@H](c2ccccc2)N2[C@H]1[C@@H](C(=O)O)[C@]1(C(=O)Nc3ccc(C#CCCO)cc31)[C@H]2c1ccc(O)cc1
A: 0.4

Q: Identify z-score associated with the molecule COc1ccc(C(O)C2C=CC3C(=O)N(C)C(=O)C3N2N2CCCCC2)c2ccccc12 (configuration not stated)
A: 1.05

Q: Identify z-score associated with the molecule Cc1ccc(C(C)CC(O)C2C=CC3C(=O)N(c4ccccc4)C(=O)C3N2Nc2ccc([N+](=O)[O-])cc2)o1 (configuration not stated)
A: 2.22

Q: Identify z-score associated with the molecule CN1C(=O)C2C=CC(C(O)Cc3ccccc3)N(Nc3ccccc3)C2C1=O (configuration not stated)
A: 0.872

Q: Identify z-score associated with the molecule COc1ccc(C(=O)O[C@H]2CC[C@]3(C)C4=C(CCC3C2(C)C)[C@]2(C)CC[C@H]([C@H](C)CCCC(C)C)[C@@]2(C)CC4)cc1 (some centres not stated)
A: -0.787

Q: Identify z-score associated with the molecule COC(=O)C=C(CC(O)c1cccc(Cl)c1)OC (configuration not stated)
A: 2.27

Q: Identify z-score associated with the molecule O=C1NC(=O)C2C1C=CC(C(O)c1ccccc1)N2Nc1ccc(Cl)cc1Cl (configuration not stated)
A: -0.32

Q: Identify z-score associated with the molecule COC(=O)[C@@]1(Cc2ccc(OC)cc2)[C@H]2c3cc(C(=O)N4CCCC4)n(Cc4ccsc4Br)c3C[C@H]2CN1C(=O)c1ccccc1
A: -0.155

Q: Identify z-score associated with the molecule CN(C)C(=O)[C@]1(Cc2ccccc2CN=[N+]=[N-])N=C(c2ccc(OCCCO)cc2)O[C@@H]1c1ccccc1CN=[N+]=[N-]
A: 13.4

Q: Identify z-score associated with the molecule C=CCOC(=O)[C@H]1[C@@H]2C(=O)O[C@@H](c3ccccc3)[C@@H](c3ccccc3)N2[C@@H](c2ccc(OCCOC(=O)[C@H]3C[C@H]4C(=O)N[C@@H](CC(C)C)C(=O)N4[C@H]3c3ccc(O)cc3)cc2)[C@]12C(=O)Nc1ccc(I)cc12
A: 0.739

Q: Identify z-score associated with the molecule CC(C)c1ccc(NN2C(C(O)C(c3ccccc3)c3ccccc3)C=CC3C(=O)N(c4ccccc4)C(=O)C32)cc1 (configuration not stated)
A: 1.32

Reference source: PubChem BioAssay
